Tested on: CAL-51
Method Notes: drug sensitivity score (DSS), CellTiter-Glo (DSS (AUC-based score)); higher = stronger drug effect (viability inhibition or cytotoxicity); extreme values may be limits of the assay
Study Conditions: incubation time: 72 h
Measured Parameter: drug sensitivity score

Before answering, review these 2 worked examples.
{"columns": ["Compound", "drug sensitivity score"],
 "data": [
  ["Cn1cnc2c(F)c(Nc3ccc(Br)cc3F)c(C(=O)NOCCO)cc21 [MEK-162]", 0],
  ["Cc1cc(C(C)Nc2ccccc2)c2nc(N3CCOCC3)cc(=O)n2c1 (stereo not drawn) [TGX-221]", 10.7]
]}

Notebook entry, CAL-51 assay: drug sensitivity score of CN1CCN(c2ccc3nc(-c4c(N)c5c(F)cccc5[nH]c4=O)[nH]c3c2)CC1 [Dovitinib] = ? 0

###

Test system: SK-BR-3
Method Notes: normalised response (% of control), CellTiter-Glo; higher = more viable cells (100 = DMSO, 0 = benzethonium chloride kill control)
Study Conditions: incubation time: 72 h
Tag: true if measured normalised response is not below 90%, false if it is.

Before answering, review these 7 worked examples.
{"columns": ["Compound", "Group Label"],
 "data": [
  ["FC(F)c1nc2ccccc2n1-c1nc(N2CCOCC2)nc(N2CCOCC2)n1 [ZSTK474] (1000 nM)", "false"],
  ["COc1ccc(C2=N[C@@H](c3ccc(Cl)cc3)[C@@H](c3ccc(Cl)cc3)N2C(=O)N2CCNC(=O)C2)c(OC(C)C)c1 [Nutlin-3] (1000 nM)", "true"],
  ["O=c1[nH]cc(F)c(=O)[nH]1 [Fluorouracil] (1000 nM)", "false"],
  ["CCS(=O)(=O)c1cccc(-c2cc(C(=O)NC3CCN(C)CC3)c(C)c3[nH]c4ncc(C)cc4c23)c1 [TAK-901] (0.1 nM)", "true"],
  ["Cn1c(=O)c(F)c(Nc2ccc(I)cc2F)c2c(=O)n(C[C@@H](O)CO)cnc21 [TAK-733] (100 nM)", "true"],
  ["COc1cc(Nc2ncc(F)c(Nc3ccc4c(n3)NC(=O)C(C)(C)O4)n2)cc(OC)c1OC [Tamatinib] (1000 nM)", "true"],
  ["CN(c1ccccc1CNc1nc(Nc2ccc3c(c2)CC(=O)N3)ncc1C(F)(F)F)S(C)(=O)=O (1000 nM)", "false"]
]}

Now, please, on to the next compound.
Is normalised response for Cn1cnc2c(F)c(Nc3ccc(Br)cc3F)c(C(=O)NOCCO)cc21 [MEK-162] (0.1 nM) at or above 90%? true

###

Entries and their EC50, CellTiter-Glo values follow.
Test system: MDA-MB-436
Study Conditions: 72 h
Numeric answer only, unit µM assumed.

Before answering, review these 4 worked examples.
{"columns": ["Compound", "Measured Parameter", "Endpoint Unit", "Result"],
 "data": [
  ["COC1=C2C[C@@H](C)C[C@H](OC)[C@H](O)[C@@H](C)/C=C(\\C)[C@H](OC(N)=O)[C@@H](OC)/C=C\\C=C(/C)C(=O)NC(=CC1=O)C2=O [Geldanamycin]", "EC50, CellTiter-Glo", "µM", 1.05],
  ["FC(F)c1nc2ccccc2n1-c1nc(N2CCOCC2)nc(N2CCOCC2)n1 [ZSTK474]", "EC50, CellTiter-Glo", "µM", 0.498],
  ["O=c1[nH]c(=O)n([C@H]2C[C@H](O)[C@@H](CO)O2)cc1F [Floxuridine]", "EC50, CellTiter-Glo", "µM", 0.0577],
  ["C[C@@]1(C(=O)Nc2ccc(F)nc2)CCCN1c1nc(Nc2cc(C3CC3)n[nH]2)c2cccn2n1", "EC50, CellTiter-Glo", "µM", 2.72]
]}

Please look up its EC50, CellTiter-Glo: Cn1c(=O)c(F)c(Nc2ccc(I)cc2F)c2c(=O)n(C[C@@H](O)CO)cnc21 [TAK-733] 0.452
